- System: SK-OV-3 ovarian
- TEST PROTOCOL: NCI tumour cell line growth inhibition, 48 h
RECORDED METRIC: TGI

C=C(CC)C[C@@H]1C[C@]2(C(=O)OC)c3[nH]c4ccccc4c3CCN2C1=O
63.9 µM
CN(CCO)/N=N/c1nc[nH]c1C(N)=O
> 100 µM

Respond only with TGI recorded for Cc1cc(C#N)c(Nc2ccccc2[N+](=O)[O-])s1
> 100 µM

Using the record for O=C(Cn1c2ccccc2c2ccncc21)N/N=C\c1ccc2ccccc2c1 , state its measured TGI.
39.4 µM

// fetch TGI given entry C[N+]12CCCCC1C(CN1C(=O)c3ccccc3C1=O)CCC2 (stereo unspecified)
> 100 µM

Query TGI for CC(=O)C1=NN(c2ccccc2)C2(S1)SC(c1ccccc1)(c1ccccc1)c1ccccc12 (stereo unspecified)
> 100 µM

Output measured TGI for this item: [O-][n+]1c2cc(CN3CCOCC3)c(CN3CCOCC3)cc2[n+]([O-])c2c(O)cccc21
13.5 µM

Check the records and state TGI for CNc1ncnc2c1cnn2Cc1cn(CCCCO)nn1
> 100 µM

Please give measured TGI of the following entry: O=C1NC(SCc2ccc(F)cc2)=N/C1=C/c1cccc(OCc2ccc(Cl)cc2)c1
> 100 µM

Assign TGI to the following record: O=[N+]([O-])c1cc2c(ccc3occc32)o1
9.66 µM

For the compound CCOC(=O)C1Oc2ccc([N+](=O)[O-])cc2C1(C)O (stereo unspecified) , report TGI.
> 100 µM
